Values compiled from PubChem BioAssay (NCI).

Tested on: HS 578T breast
Protocol Description: NCI tumour cell line growth inhibition, 48 h
TGI overview
Write the value in µM as a bare number.

Sample records with TGI:
1) C[C@]12CC/C(=N\O)C=C1CC[C@@H]1[C@@H]2CC[C@]2(C)C(=N/O)/C(=C/c3cccnc3)C[C@@H]12	18.6
2) O=C1c2ccccc2C(=O)c2c1ccc1[nH]c(CCl)nc21	14.7
3) N#Cc1nc(-c2ccc(F)cc2)oc1S(=O)(=O)N1CCOCC1	45.4
4) Cc1nc(Cl)c(CBr)c(Cl)n1	5.94

For the next question, use this molecule.
If you can, please state the reported TGI value of COc1cccc(C2c3cc4c(cc3OC(N3CCCC3)C2C)OCO4)c1OC (stereo unspecified) .
11.1
